system: hT1R2/T1R3 taste receptor (Homo sapiens, UniProt Q7RTX0+Q8TE23)
Sequence (Q8TE23 20-839): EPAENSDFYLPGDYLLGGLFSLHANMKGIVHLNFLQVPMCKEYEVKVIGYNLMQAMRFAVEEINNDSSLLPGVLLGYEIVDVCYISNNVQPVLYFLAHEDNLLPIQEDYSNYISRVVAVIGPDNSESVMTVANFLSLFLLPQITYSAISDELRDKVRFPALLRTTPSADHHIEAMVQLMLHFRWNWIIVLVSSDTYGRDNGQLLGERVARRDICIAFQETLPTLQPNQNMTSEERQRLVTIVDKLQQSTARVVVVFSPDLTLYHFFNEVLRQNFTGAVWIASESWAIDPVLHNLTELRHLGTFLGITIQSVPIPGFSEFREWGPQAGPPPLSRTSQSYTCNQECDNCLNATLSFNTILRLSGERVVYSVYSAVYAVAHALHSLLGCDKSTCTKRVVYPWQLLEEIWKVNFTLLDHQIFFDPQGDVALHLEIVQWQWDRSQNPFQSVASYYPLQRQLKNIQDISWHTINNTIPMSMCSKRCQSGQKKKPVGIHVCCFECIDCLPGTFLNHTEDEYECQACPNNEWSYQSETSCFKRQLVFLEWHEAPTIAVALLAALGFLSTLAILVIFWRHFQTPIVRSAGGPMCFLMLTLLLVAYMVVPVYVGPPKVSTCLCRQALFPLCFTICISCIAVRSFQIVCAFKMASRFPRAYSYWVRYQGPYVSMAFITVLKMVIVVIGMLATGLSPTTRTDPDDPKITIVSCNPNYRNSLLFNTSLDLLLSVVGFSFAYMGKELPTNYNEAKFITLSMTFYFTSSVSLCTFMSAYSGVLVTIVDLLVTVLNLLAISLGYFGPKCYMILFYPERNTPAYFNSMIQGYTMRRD
Sequence (Q7RTX0 21-852): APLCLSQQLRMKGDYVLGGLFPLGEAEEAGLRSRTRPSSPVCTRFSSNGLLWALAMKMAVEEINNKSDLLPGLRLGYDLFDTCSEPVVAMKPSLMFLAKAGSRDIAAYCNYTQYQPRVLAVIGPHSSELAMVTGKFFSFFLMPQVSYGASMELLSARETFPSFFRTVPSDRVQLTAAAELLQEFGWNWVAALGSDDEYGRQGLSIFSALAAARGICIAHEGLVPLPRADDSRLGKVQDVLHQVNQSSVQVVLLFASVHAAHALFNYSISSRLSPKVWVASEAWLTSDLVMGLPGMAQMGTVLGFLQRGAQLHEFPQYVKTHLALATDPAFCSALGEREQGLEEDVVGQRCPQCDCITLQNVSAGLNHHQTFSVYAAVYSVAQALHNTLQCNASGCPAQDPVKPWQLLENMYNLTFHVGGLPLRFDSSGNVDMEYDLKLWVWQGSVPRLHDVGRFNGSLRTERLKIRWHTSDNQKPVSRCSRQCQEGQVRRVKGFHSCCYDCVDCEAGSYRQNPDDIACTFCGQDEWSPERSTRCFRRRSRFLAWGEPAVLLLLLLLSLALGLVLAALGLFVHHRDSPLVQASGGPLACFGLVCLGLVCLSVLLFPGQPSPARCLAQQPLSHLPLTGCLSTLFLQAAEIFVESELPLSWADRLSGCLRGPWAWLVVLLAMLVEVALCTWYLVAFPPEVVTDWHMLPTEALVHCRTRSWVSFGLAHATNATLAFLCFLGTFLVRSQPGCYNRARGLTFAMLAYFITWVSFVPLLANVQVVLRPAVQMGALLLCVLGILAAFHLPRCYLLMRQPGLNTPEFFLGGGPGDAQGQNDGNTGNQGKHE
assayExplanation: agonist activity against the hT1R2/T1R3 taste receptor (sweet receptor based assay)
Type: cell-based
conditionInfo: agonist activity, hT1R2/T1R3; read-out: Sweet EC50
pEC50: −log10 of the molar value.
// pEC50 lookup, one value per entry

Illustrative cases are given below, each with its answer.
- molecule: "COc1cccc(C2CCN(C(C)(C)C(=O)NCC(C)C)CC2)c1F"
  pEC50: 5.85
- molecule: "Cc1cccc(N2CCN(C(C)(C)C(=O)NC3CC3)CC2)c1C"
  pEC50: 5.37
- molecule: "CC(C)CNC(=O)C(C)(C)N1CCN(c2ccccn2)CC1"
  pEC50: "< 5.00"
- molecule: "CCC(CC)CNC(=O)C(C)(C)N1CCN(c2cccc(C)c2C)CC1"
  pEC50: "< 5.00"

Fill in: pEC50 of CC(C)CNC(=O)C(C)(C)N1CC=C(c2cccc(CO)c2F)CC1 is ___
< 5.00

Look at this molecule and give its reported pEC50. CC(C)CNC(=O)C(C)(C)N1CC=C(c2cccc3c2OCO3)CC1
< 5.00

Recorded pEC50 for Cc1cccc(N2CCN(C(C)(C)C(=O)NCC(C)(C)O)CC2)c1C , please?
< 5.00

Quick one: pEC50 of Cc1cccc(N2CCN(C(C)(C)C(=O)NCCN(C)C)CC2)c1C ?
< 5.00

# pEC50 lookup, item COCC(C(=O)NCC(C)C)N1CCC(c2cccc(F)c2F)CC1 (stereo not drawn)
6.40
